- test_system: T1, recombinant his-tag human LAG3-ECD protein (human, UniProt P18627 23-450)
- T1 construct: extracellular domain; not shown: his tag
- T1 sequence (looked up): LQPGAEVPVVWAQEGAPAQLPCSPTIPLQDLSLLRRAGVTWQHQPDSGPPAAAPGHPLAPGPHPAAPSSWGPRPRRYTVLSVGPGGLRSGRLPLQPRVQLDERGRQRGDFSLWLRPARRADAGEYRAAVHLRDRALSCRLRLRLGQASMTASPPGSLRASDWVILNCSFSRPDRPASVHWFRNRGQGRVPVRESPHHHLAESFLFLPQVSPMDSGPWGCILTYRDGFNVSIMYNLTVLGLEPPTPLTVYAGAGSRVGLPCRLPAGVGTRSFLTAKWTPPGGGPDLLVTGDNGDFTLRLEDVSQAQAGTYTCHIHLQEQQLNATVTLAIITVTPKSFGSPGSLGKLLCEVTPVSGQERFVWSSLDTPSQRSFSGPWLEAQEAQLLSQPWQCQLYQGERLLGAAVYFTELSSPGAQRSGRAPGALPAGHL
- method_notes: SPR Biacore T200, capture method as Example 2.7
property_label: koff (s⁻¹)
# output: bare number, implied unit s⁻¹

Observe how each entry below is paired with its result.
[[record]]
binder = "147H 3810 (antibody, V domains shown, also called B3810) VH: EVQLVQSGAEVKKPGASVKVSCKASGYLFTNYWLGWIKQAPGQGLEWIGDIYPGGDYIVYNEKFKGKATLTADTSISTAYMELSRLRSDDTAVYYCARPNLPKDHWGQGTTVTVSS VL: DIVMTQSPLSLPVTPGEPASISCRSSKSLLHSNAITYLYWYLQKPGQSPQLLIYQVSNLATGVPDRFSGSGSGTDFTLKISRVEAEDVGVYYCAQYLELPWTFGGGTKVEIK"
assay_value = 0.0019

[[record]]
binder = "147H 3793 (antibody, V domains shown) VH: EVQLVQSGAEVKKPGASVKVSCKASGYLFTNYWLGWIKQAPGQGLEWIGDIYPGGDYIVYNEKFKGKATLTADTSISTAYMELSRLRSDDTAVYYCARPNLPGDYWGQGTTVTVSS VL: DIVMTQSPLSLPVTPGEPASISCRSSKSLLHSNAITYLYWYLQKPGQSPQLLIYQVSNLASGVPDRFSGSGSGTDFTLKISRVEAEDVGVYYCGQNLELPWTFGGGTKVEIK"
assay_value = 0.0023

[[record]]
binder = "147H 3791 (antibody, V domains shown) VH: EVQLVQSGAEVKKPGASVKVSCKASGYTFTNYWLGWIKQAPGQGLEWIGDIYPGGDYIVYNEKFKGKATLTADTSISTAYMELSRLRSDDTAVYYCARPNLPGDYWGQGTTVTVSS VL: DIVMTQSPLSLPVTPGEPASISCRSSKSLLHSNAITYLYWYLQKPGQSPQLLIYQVSNLASGVPDRFSGSGSGTDFTLKISRVEAEDVGVYYCGQNLELPWTFGGGTKVEIK"
assay_value = 0.0025


Q. If you can, please state the reported koff value of 147H 3669 (antibody, V domains shown) VH: EVQLVQSGAEVKKPGASVKVSCKASGYLFTNYWLGWIKQAPGQGLEWIGDIYPGGDYIVYNEKFKGKATLTADTSISTAYMELSRLRSDDTAVYYCARPNLPGDYWGQGTTVTVSS VL: DIVMTQSPLSLPVTPGEPASISCRSSKSLLHSNAITYLYWYLQKPGQSPQLLIYQVSNLASGVPDRFSGSGSGTDFTLKISRVEAEDVGVYYCAQNLELPWTFGGGTKVEIK .
A. 0.0063
